Overview of reported inhibition at 100 µg/mL across a group of compounds:
- System: G. graminis
- Run description: antibacterial activity by mycelial growth rate method
- Type: cell-based
- Condition notes: Gaeumannomyces graminis, 100 mg/L
- Method: Five common strains of C. gloeosporioides, V. mali, F. oxysporum, B. cinerea and G. graminis were selected, and the antibacterial activity of the compounds was tested by a mycelial growth rate method (Ann. Appl. Biol., 2008, 152, 369). The above strains for test were provided by Shangdong Biopesticide Engineering Research Center. […]
Measured metric: inhibition at 100 µg/mL (%)

Cc1ccc(CN2Cc3cc4ccccc4nc3CC3CCCN3c3ccccc32)cc1 (stereo not drawn)
100
Cc1ccc(CN2Cc3cc4cc(C(F)(F)F)ccc4nc3CC3CCCN3c3ccccc32)cc1 (stereo not drawn)
100
COc1cccc(CN2Cc3cc4ccccc4nc3CC3CCCN3c3ccccc32)c1 (stereo not drawn)
100
Fc1ccc(CN2Cc3cc4ccccc4nc3CC3CCCN3c3ccccc32)cc1 (stereo not drawn)
100
Cc1ccc(CN2Cc3cc4ccccc4nc3CC3CCCN3c3cc(Cl)ccc32)cc1 (stereo not drawn)
75.1
c1ccc(CN2Cc3cc4ccccc4nc3CC3CCCN3c3ccccc32)cc1 (stereo not drawn)
68.9
